Measured values drawn from the supplement of paper PMC9262897 for this set.

Test system: E. coli TESEC Mtb Asd
Assay: growth (OD600 after 10 h); higher = more growth (less inhibition)
Details: arabinose induction (level): Low; compound 0.1 mM; raw OD600 reference: median of DMSO wells 0.417, cell-free background 0.041
Structures can show the parent of a compound that is named as a salt.
# growth per record follows

CCOC(=O)c1ccc(OC(=O)CCCCCNC(=N)N)cc1 [Gabexate mesilate] : 0.147
CC(C)NCC(O)c1ccc(NS(C)(=O)=O)cc1 (stereo not drawn) [Sotalol hydrochloride] : 0.377

Then this compound:
Any idea what growth was measured for CCCOc1cc(N)ccc1C(=O)OCCN(CC)CC [Propoxycaine hydrochloride] ?
0.376

---

System: E. coli TESEC Mtb Alr
Experiment: growth (OD600 after 10 h); higher = more growth (less inhibition)
Conditions: arabinose 10000000 nM; compound 0.1 mM; raw OD600 reference: median of DMSO wells 0.146, cell-free background 0.041
Where a name gives a salt, the structure may show the parent alone.
Decision: growth >= 0.1 yields met, all other cases yield not met.

Check out these entries, answers already filled in.
CNCC[C@@H](Oc1cccc2ccccc12)c1cccs1 [(R)-Duloxetine hydrochloride] : not met
N#Cc1cc(NC(=O)C(=O)O)c(Cl)c(NC(=O)C(=O)O)c1 [Lodoxamide] : met

growth >= 0.1 for CN(C)CCCO[C@@H]1[C@H]2OC(C)(C)O[C@H]2O[C@@H]1[C@H](O)CO [Amiprilose hydrochloride] ?
met

How about this molecule: O=C1C(=O)c2ccccc2C(O)=C1C1CCC(c2ccc(Cl)cc2)CC1 (stereo not given)
met

Proceed to Nc1nc(F)nc2c1ncn2[C@@H]1O[C@H](CO)[C@@H](O)[C@@H]1O
met

Then CC(C)(C)c1ccc(C(O)CCCN2CCC(C(O)(c3ccccc3)c3ccccc3)CC2)cc1 (stereo not given) ?
met

And for CCCNCC(O)COc1ccccc1C(=O)CCc1ccccc1 (stereo not given) [Propafenone hydrochloride] ?
met

---

The compounds listed here are annotated with their growth.
System: E. coli TESEC Mtb DapB
Assay: growth (OD600 after 10 h); higher = more growth (less inhibition)
Conditions: arabinose induction (level): Low; compound 0.1 mM; raw OD600 reference: median of DMSO wells 0.227, cell-free background 0.041
Structures can show the parent of a compound that is named as a salt.
// no unit string in output, number only

NS(=O)(=O)c1cc2c(cc1Cl)NC(CC1CCCC1)NS2(=O)=O (configuration not stated) [Cyclopenthiazide] : 0.214
OC(CCN1CCCCC1)(c1ccccc1)c1ccccc1 [Pridinol methanesulfonate salt] : 0.262
CCN(CC)C(=O)C1(c2ccccc2)CC1CN (configuration not stated) [Milnacipran hydrochloride] : 0.259
CCN(CC)CCNc1ccc(CO)c2sc3ccccc3c(=O)c12 : 0.163

Requested read-out: growth. Entry: O=C1[C@H]2CCCC[C@H]2C(=O)N1CCCCN1CCN(c2nsc3ccccc23)CC1
0.241

Another compound to look at: CC(C)c1c(C(=O)Nc2ccccc2)c(-c2ccccc2)c(-c2ccc(F)cc2)n1CC[C@@H](O)C[C@@H](O)CC(=O)O
0.183

Note, next up: COCCOC(=O)C1=C(C)NC(C)=C(C(=O)OC/C=C/c2ccccc2)C1c1cccc([N+](=O)[O-])c1 (configuration not stated)
0.21

---

System: E. coli TESEC Mtb Alr
Assay: growth (OD600 after 10 h); higher = more growth (less inhibition)
Conditions: arabinose 10000000 nM; compound 0.1 mM; raw OD600 reference: median of DMSO wells […], cell-free background 0.052
Counter-ions that a name gives are not always drawn.
Lab note: anything with growth at or over 0.3 counts as Criterion met; the rest go in Criterion not met.

Past entries and their recorded results:
NC(=O)N/N=C/c1ccc([N+](=O)[O-])o1 : Criterion not met
CN(C)CCCOc1nn(Cc2ccccc2)c2ccccc12 [Benzydamine hydrochloride] : Criterion not met
Cc1cccc(C)c1NC(=O)C1CCCCN1C (stereo unspecified) [Mepivacaine hydrochloride] : Criterion met
Cc1ccc(C(=O)c2ccc(CC(=O)O)n2C)cc1 [Tolmetin sodium salt dihydrate] : Criterion met
Clc1ccc(COC(Cn2ccnc2)c2ccc(Cl)cc2Cl)c(Cl)c1 (stereo unspecified) : Criterion not met

Now consider a different compound.
Answer whether growth of O=C(O)c1ccccc1C(=O)Nc1ccc(S(=O)(=O)Nc2nccs2)cc1 is greater than or equal to 0.3.
Criterion met

---

Test system: E. coli TESEC Mtb Alr
Test: growth (OD600 after 10 h); higher = more growth (less inhibition)
Conditions: arabinose 10000 nM; compound 0.1 mM; raw OD600 reference: median of DMSO wells 0.264, cell-free background 0.041
Where a name gives a salt, the structure may show the parent alone.
Each entry below carries its recorded growth.
Write the value as a bare number.

CCOC(=O)Nc1ccc2c(c1)N(C(=O)CCN1CCOCC1)c1ccccc1S2 [Moricizine hydrochloride] : 0.222
N[C@@H]1CCCCN(c2c(F)cc3c(=O)c(C(=O)O)cn(C4CC4)c3c2Cl)C1 [Besifloxacin hydrochloride] : 0.0401
C[C@@H](O[C@H]1OCCN(Cc2n[nH]c(=O)[nH]2)[C@H]1c1ccc(F)cc1)c1cc(C(F)(F)F)cc(C(F)(F)F)c1 [Aprepitant] : 0.116

I would be grateful if you could share the reported growth for c1ccc2c(c1)CCCC2C1=NCCN1 (stereo not given) [Tetrahydrozoline hydrochloride] .
0.247

Please do the same for C=C[C@H]1CN2CC[C@H]1C[C@@H]2[C@@H](O)c1ccnc2ccc(OC)cc12 [Quinidine hydrochloride monohydrate] as well.
0.265

---

System: E. coli TESEC Mtb Asd
Assay: growth (OD600 after 10 h); higher = more growth (less inhibition)
Conditions: arabinose induction (level): Low; compound 0.1 mM; raw OD600 reference: median of DMSO wells 0.417, cell-free background 0.041
Structures can show the parent of a compound that is named as a salt.
Lab note: anything with growth at or over 0.4 counts as true; the rest go in false.

N=C(N)N/N=C/c1c(Cl)cccc1Cl [Guanabenz acetate] : true
CNS(=O)(=O)Cc1ccc2[nH]cc(CCN(C)C)c2c1 [Sumatriptan succinate] : true
O=C(NCC(O)CO)c1c(I)c(C(=O)NCC(O)CO)c(I)c(N(CCO)C(=O)CO)c1I (configuration not stated) : true
NC(=O)c1cc[n+](CC2=C(C(=O)[O-])N3C(=O)[C@@H](NC(=O)[C@@H](c4ccccc4)S(=O)(=O)O)[C@H]3SC2)cc1 [Cefsulodin sodium salt] : true
C[C@]12CCC(=O)C=C1C=C[C@@H]1[C@@H]2CC[C@@]2(C)[C@H]1CC[C@@]21CCC(=O)O1 : false

Hi, just wondering whether CCOC(=O)O[C@]1(C(=O)OCCl)CC[C@H]2[C@@H]3CCC4=CC(=O)C=C[C@]4(C)[C@H]3[C@@H](O)C[C@@]21C [Loteprednol etabonate] shows growth of 0.4 or higher.
false

Again, but for O=C1CC[C@@H](C(=O)N2CSC[C@H]2C(=O)O)N1
true

Another compound: O=C1c2ccccc2C(=O)C1c1ccccc1
false

Cool, now CC1(C)[C@@H](OC(=O)CCC(=O)O)CC[C@]2(C)[C@H]3C(=O)C=C4[C@@H]5C[C@@](C)(C(=O)O)CC[C@]5(C)CC[C@@]4(C)[C@]3(C)CC[C@@H]12 [Carbenoxolone disodium salt]
false

Input COc1ncnc(NS(=O)(=O)c2ccc(N)cc2)c1OC
false

// query: CO[C@@]1(NC(=O)C2SC(=C(C(N)=O)C(=O)O)S2)C(=O)N2C(C(=O)O)=C(CSc3nnnn3C)CS[C@@H]21 (some centres not stated)
false

---

Test system: E. coli TESEC Mtb Alr
Assay: growth (OD600 after 10 h); higher = more growth (less inhibition)
Details: arabinose 100000 nM; compound 0.1 mM; raw OD600 reference: median of DMSO wells 0.201, cell-free background 0.041
Where a name gives a salt, the structure may show the parent alone.
Assay readout: growth
Respond with the number and no other words.

O=C1c2cccc(O)c2C(=O)c2c(O)cccc21 [1,8-Dihydroxyanthraquinone] : 0.138
Nc1nc2[nH]cc(CCc3ccc(C(=O)N[C@@H](CCC(=O)O)C(=O)O)cc3)c2c(=O)[nH]1 [Pemetrexed disodium] : 0.218
CN1CCCN(C(c2ccccc2)c2ccc(Cl)cc2)CC1 (stereo not given) [Homochlorcyclizine dihydrochloride] : 0.09
CN(C)CCOC(=O)COc1ccc(Cl)cc1 [Meclofenoxate hydrochloride] : 0.199
CN(C)c1ccc(O)c2c1C[C@H]1C[C@H]3[C@H](N(C)C)C(=O)C(C(N)=O)=C(O)[C@@]3(O)C(=O)C1=C2O [Minocycline hydrochloride] : 0.0426
COc1ccc(OC)c(C(O)CNC(=O)CN)c1 (stereo not given) [Midodrine hydrochloride] : 0.204

Param readout= growth; system= E. coli TESEC Mtb Alr; entry= NC(=O)N1c2ccccc2C=Cc2ccccc21 [Carbamazepine] ; returns value.
0.182
